# Measurement protocol: logP by HPLC on reversed-phase column (C 18), EEC Directive 79/831 Annex V.A8
# Format: physicochemical
# Experimental setup: reversed-phase HPLC column (C 18); acidic range, pH 2.3, 0.1% aqueous phosphoric acid and acetonitrile, 43° C. (marked a)
# Experimental: The logP values given in the Preparation Examples and Tables above were determined in accordance with EEC Directive 79/831 Annex V.A8 by HPLC (High Performance Liquid Chromatography) on a reversed-phase column (C 18). Temperature: 43° C. In the acidic range, the determination was carried out at pH 2.3 using the mobile phases 0.1% aqueous phosphoric acid and acetonitrile; linear gradient from 10% acetonitrile to 90% acetonitrile (marked ^a) in the Table). […]
Value kind: chromatographic logP

Smiles text	Reported
CO/N=C/c1ccc(-c2ccccc2NC(=O)c2c(C)nn(C)c2F)c(Cl)c1	3.26
CO/N=C/c1ccc(-c2cccc(F)c2NC(=O)c2c(C)nn(C)c2F)cc1	2.51
CO/N=C/c1ccc(-c2c(C)cccc2NC(=O)c2c(C)nn(C)c2F)cc1	3.39
Cc1nn(C)c(F)c1C(=O)Nc1ccccc1-c1ccc(/C=N\O)cc1	2.24
CO/N=C/c1ccc(-c2c(C)cccc2NC(=O)c2c(C)nn(C)c2F)cc1Cl	3.89
CCO/N=C/c1ccc(-c2ccccc2NC(=O)c2c(C)nn(C)c2F)cc1OC	3.58
Cc1nn(C)c(F)c1C(=O)Nc1c(F)cc(F)cc1-c1ccc(/C=N/OCc2ccccn2)cc1	1.81
CCCCO/N=C\c1ccc(-c2ccccc2NC(=O)c2c(C)nn(C)c2F)cc1	4.33
CO/N=C/c1ccc(-c2ccc(OC)cc2NC(=O)c2c(C)nn(C)c2F)cc1	3.1
CO/N=C/c1ccc(-c2cc(F)c(F)cc2NC(=O)c2c(C)nn(C)c2F)cc1	3.48

* * *

# Measurement protocol: logP by HPLC on reversed-phase column (C 18), EEC Directive 79/831 Annex V.A8
# Format: physicochemical
# Experimental setup: reversed-phase HPLC column (C 18); neutral range, pH 7.5, 0.01 molar aqueous phosphate buffer and acetonitrile, 43° C. (marked b)

Compound	chromatographic logP
Cc1nn(C)c(F)c1C(=O)Nc1c(F)cc(F)cc1-c1ccc(/C=N/OCc2ccccc2)cc1 [Example 14]	3.68

* * *

# Measurement protocol: logP by HPLC on reversed-phase column (C 18), EEC Directive 79/831 Annex V.A8
# Assay type: physicochemical
# Experimental setup: reversed-phase HPLC column (C 18); acidic range, pH 2.3, 0.1% aqueous phosphoric acid and acetonitrile, 43° C. (marked a)
// returns false unless chromatographic logP is strictly below 4, in which case true

Molecule	Label value
CO/N=C/c1ccc(-c2ccccc2NC(=O)c2c(C)nn(C)c2F)cc1OC [Example 27]	true
Cc1nn(C)c(F)c1C(=O)Nc1ccccc1-c1ccc(/C=N/OCc2ccncc2)cc1 [Example 16]	true
CO/N=C/c1ccc(-c2ccc(Cl)cc2NC(=O)c2c(C)nn(C)c2F)cc1 [Example 33]	true
CO/N=C/c1ccc(-c2cc(C(F)(F)F)cc(Cl)c2NC(=O)c2c(C)nn(C)c2F)cc1 [Example 40]	false
CO/N=C/c1cccc(-c2cc(C(F)(F)F)cc(Cl)c2NC(=O)c2c(C)nn(C)c2F)c1 [Example 44]	false
Cc1nn(C)c(F)c1C(=O)Nc1c(F)cc(F)cc1-c1ccc(/C=N/OCc2cccnc2)cc1 [Example 18]	true

* * *

# chromatographic logP per record follows
# Measurement protocol: logP by HPLC on reversed-phase column (C 18), EEC Directive 79/831 Annex V.A8
# Assay type: physicochemical
# Experimental setup: reversed-phase HPLC column (C 18); acidic range, pH 2.3, 0.1% aqueous phosphoric acid and acetonitrile, 43° C. (marked a)
Value kind: chromatographic logP

Molecule	Reported
CCC(C)O/N=C(/C)c1ccc(-c2ccccc2NC(=O)c2c(C)nn(C)c2F)cc1 (stereo not shown) [Example 51]	4.67
CO/N=C/c1ccc(-c2ccc(C)cc2NC(=O)c2c(C)nn(C)c2F)cc1 [Example 31]	3.34
CO/N=C/c1ccc(-c2ccccc2NC(=O)c2c(C)nn(C)c2F)cc1Cl [Example 46]	3.47
Cc1nn(C)c(F)c1C(=O)Nc1ccccc1-c1ccc(/C=N/OCCCl)cc1 [Example 25]	3.38

* * *

# Measurement protocol: logP by HPLC on reversed-phase column (C 18), EEC Directive 79/831 Annex V.A8
# Type: physicochemical
# Experimental setup: reversed-phase HPLC column (C 18); acidic range, pH 2.3, 0.1% aqueous phosphoric acid and acetonitrile, 43° C. (marked a)
Value kind: chromatographic logP

Compound	Reported
CO/N=C/c1ccc(-c2cc(C)c(F)cc2NC(=O)c2c(C)nn(C)c2F)cc1 [Example 34]	3.74
Cc1nn(C)c(F)c1C(=O)Nc1ccccc1-c1ccc(/C=N/OCc2cccnc2)cc1 [Example 12]	1.75
CCO/N=C/c1ccc(-c2ccccc2NC(=O)c2c(C)nn(C)c2F)c(C)c1 [Example 39]	3.91
CO/N=C(\C)c1cccc(-c2ccccc2NC(=O)c2c(C)nn(C)c2F)c1 [Example 7]	3.2
CO/N=C/c1ccc(-c2ccccc2NC(=O)c2c(C)nn(C)c2F)c(C)c1 [Example 26]	3.4
CO/N=C\c1cc(-c2ccccc2NC(=O)c2c(C)nn(C)c2F)ccc1/C=N/OC [Example 48]	3.25
CO/N=C/c1ccc(-c2cc(F)ccc2NC(=O)c2c(C)nn(C)c2F)cc1 [Example 37]	3.01
CO/N=C/c1ccc(-c2cc(Cl)cc(F)c2NC(=O)c2c(C)nn(C)c2F)cc1 [Example 35]	3.11

* * *

# chromatographic logP per record follows
# Measurement protocol: logP by HPLC on reversed-phase column (C 18), EEC Directive 79/831 Annex V.A8
# Type: physicochemical
# Experimental setup: reversed-phase HPLC column (C 18); acidic range, pH 2.3, 0.1% aqueous phosphoric acid and acetonitrile, 43° C. (marked a)
Value kind: chromatographic logP

Molecule	Value kind	Reported
CCO/N=C/c1ccc(-c2cc(F)cc(F)c2NC(=O)c2c(C)nn(C)c2F)cc1 [Example 11]	chromatographic logP	3.05
Cc1nn(C)c(F)c1C(=O)Nc1ccccc1-c1ccc(/C=N/OCc2ccccc2)cc1 [Example 13]	chromatographic logP	4.02
CO/N=C/c1cccc(-c2ccc(Cl)cc2NC(=O)c2c(C)nn(C)c2F)c1 [Example 41]	chromatographic logP	3.89
Cc1nn(C)c(F)c1C(=O)Nc1c(F)cc(F)cc1-c1ccc(/C=N/OCc2ccncc2)cc1 [Example 19]	chromatographic logP	1.6
CO/N=C/c1ccc(-c2ccc(F)cc2NC(=O)c2c(C)nn(C)c2F)cc1 [Example 8]	chromatographic logP	3.39
CO/N=C/c1ccc(-c2ccccc2NC(=O)c2c(C)nn(C)c2F)cc1C [Example 47]	chromatographic logP	3.3
CO/N=C/c1ccc(-c2cc(Cl)ccc2NC(=O)c2c(C)nn(C)c2F)cc1 [Example 28]	chromatographic logP	3.67
Cc1nn(C)c(F)c1C(=O)Nc1ccccc1-c1ccc(/C=N/OCc2ccccn2)cc1 [Example 17]	chromatographic logP	1.89
